Test system: SK-OV-3
assay remarks: NCI tumour cell line growth inhibition, 48 h
Activity calls are given as the source filed them. Rule as the data show it: active = GI50 up to about 1.1 µM and inactive = higher.
measurement type: GI50

[[record]]
compound = "O=S(=O)(c1ccc(-c2nnc(-c3ccc(F)cc3)o2)cc1)c1ccc(-c2nnc(-c3ccc(F)cc3)o2)cc1"
measurement_type = "GI50"
val = "30.4 µM (inactive)"

[[record]]
compound = "O=[N+]([O-])c1cc2oc(CSc3ccccc3)nc2cc1Cl"
measurement_type = "GI50"
val = "29.5 µM (inactive)"


State recorded GI50 for all listed compounds.
1. COc1ccc(/C=C2\CSC/C(=C\c3ccc(OC)c(OC)c3OC)C2=O)c(OC)c1OC
2. COc1cc(Cl)c(CC(=O)c2c[nH]c3ccccc23)cc1OC
3. O=C(OCCOC(=O)c1ccc2c(c1)C1(SCCS1)c1ccccc1-2)c1ccc2c(c1)C1(SCCS1)c1ccccc1-2
4. Cc1ccc(/N=N/C(C(=O)c2ccccc2)C(=O)c2ccccc2)cc1

OUTPUT:
1. > 100 µM (inactive)
2. 8.07 µM (inactive)
3. > 100 µM (inactive)
4. 47.1 µM (inactive)

State recorded GI50 for all listed compounds.
1. O=C1N/C(=N/N=C\C(O)C(O)C(O)CO)N/C1=C/c1ccc(Cl)cc1 (centres undefined)
2. CC1=C(O)C(=O)C[C@]2(C)[C@H]3CC=C4[C@@H]5CC(C)(C)CC[C@@H]5C(=O)[C@H](O)[C@@]4(C)[C@]3(C)CC[C@@H]12
3. O=C(c1ccc(Cl)cc1)N(C(=S)N1CCN(c2ccccc2)CC1)C1CCCCC1

OUTPUT:
63.5 µM (inactive)
> 50 µM (inactive)
> 100 µM (inactive)

----------
Would you mind telling me the reported GI50 of each entry?
Tested on: SF-539
assay remarks: NCI tumour cell line growth inhibition, 48 h
Calls of active or inactive are those of the source. Rule as the data show it: active = GI50 up to about 1.1 µM and inactive = higher.

[[record]]
compound = "CCOC(=O)C(=CN1CCNC1=S)C(=O)OCC"
study_target = "SF-539"
val = "> 100 µM (inactive)"

[[record]]
compound = "CCOC(=O)C1=C(N2CCCC2)NC(=O)CC1=O"
study_target = "SF-539"
val = "> 100 µM (inactive)"

[[record]]
compound = "O=C1CSC(c2cccc(Cl)c2)N1c1c(O)c(Cl)cc(Br)c1Cl (stereo unspecified)"
study_target = "SF-539"
val = "28.8 µM (inactive)"

[[record]]
compound = "N/C(=N\\N/C=C1\\C=Nc2cc(C(F)(F)F)ccc2C1=O)NO"
study_target = "SF-539"
val = "> 10 µM (inactive)"

[[record]]
compound = "CCO[C@@]1(COCc2ccccc2)OC(=O)C[C@@H]1N1C(=O)OC[C@@H]1c1ccccc1"
study_target = "SF-539"
val = "> 100 µM (inactive)"

[[record]]
compound = "C(CCCCc1nnc(N2CCCCC2)o1)CCCc1nnc(N2CCCCC2)o1"
study_target = "SF-539"
val = "> 100 µM (inactive)"

[[record]]
compound = "NC(Cc1cc(Br)c(O)c(Br)c1)C(=O)O (stereo unspecified)"
study_target = "SF-539"
val = "> 100 µM (inactive)"

[[record]]
compound = "CCOC(=O)C#Cc1ccc(C#CC(=O)OCC)cc1"
study_target = "SF-539"
val = "10.6 µM (inactive)"

[[record]]
compound = "CCCCCCN1CCc2c(C)c(C#N)c3nc4ccccc4n3c21"
study_target = "SF-539"
val = "> 100 µM (inactive)"

[[record]]
compound = "N#Cc1c(-c2ccccc2)c(-c2ccccc2)cc2c(=O)c3ccc(Cl)cc3[nH]c12"
study_target = "SF-539"
val = "> 100 µM (inactive)"


INPUT: SF-539 / GI50 / CCOC(=O)NC/C=C/COC1CCCCO1 (stereo unspecified) : value?
OUTPUT: > 100 µM (inactive)

----------
Would you mind telling me the reported GI50 of each entry?
Tested on: HT-29
assay remarks: NCI tumour cell line growth inhibition, 48 h
The source made the active and inactive calls. No stated cut-off is given here; in the data, active = GI50 up to about 1.1 µM and inactive = higher.

[[record]]
compound = "C#CCCOC1(OC)N=NC(C)(C)O1 (stereo not given)"
val = "> 100 µM (inactive)"

[[record]]
compound = "C=C(C)[C@]12CC(C)C34OC(/C=C\\C=C\\CCCCCCCCC)(O[C@@H]1[C@@H]3[C@@H]1O[C@]1(CO)[C@@H](O)[C@]1(O)C(=O)C(C)=C[C@@H]41)O2 (stereo not given in full)"
val = "2.21 µM (inactive)"

[[record]]
compound = "N#Cc1c(-c2ccccc2)c(-c2ccccc2)cc2c(=O)c3ccc(Cl)cc3[nH]c12"
val = "> 100 µM (inactive)"


State recorded GI50 for all listed compounds.
1. Cc1c2cc[n+](C)cc2c(C)c2c1[nH]c1ccc(OCC(F)(F)F)cc12
2. C=C(CN(C)C)C(=O)c1ccccc1C

OUTPUT:
1. 4.11 µM (inactive)
2. > 100 µM (inactive)

----------
Tested on: RXF 393
assay remarks: NCI tumour cell line growth inhibition, 48 h
The source made the active and inactive calls. Cut-off read from the data, not from the text of the source: active = GI50 up to about 1.1 µM and inactive = higher.
Would you mind telling me the reported GI50 of each entry?

In the examples that follow, each entry is paired with its recorded GI50.
[[record]]
compound = "COc1ccccc1CNC1=Nc2ccncc2S(=O)(=O)N1c1ccccc1"
study_target = "RXF 393"
measurement_type = "GI50"
val = "2.47 µM (inactive)"

[[record]]
compound = "CCOC(=O)C#Cc1ccc(C#CC(=O)OCC)cc1"
study_target = "RXF 393"
measurement_type = "GI50"
val = "2.62 µM (inactive)"

[[record]]
compound = "O=C1Nc2ccc(Cl)cc2/C1=C\\c1c(Cl)nc2sccn12"
study_target = "RXF 393"
measurement_type = "GI50"
val = "18.6 µM (inactive)"

[[record]]
compound = "CC(C)(C)NCCC(O)c1cc(C(F)(F)F)nc2c(C(F)(F)F)cccc12 (stereo not given)"
study_target = "RXF 393"
measurement_type = "GI50"
val = "6.53 µM (inactive)"

[[record]]
compound = "CC(C)NC(=O)OCc1c(COC(=O)NC(C)C)c(-c2ccc[n+](COC(=O)C3CCCCC3)c2)n2c1CCC2"
study_target = "RXF 393"
measurement_type = "GI50"
val = "38.9 µM (inactive)"

[[record]]
compound = "CCOc1ccc2c(C)cc(=O)oc2c1"
study_target = "RXF 393"
measurement_type = "GI50"
val = "> 100 µM (inactive)"

[[record]]
compound = "CC(C)C(=O)/C=C/c1ccc(Cl)c(Cl)c1"
study_target = "RXF 393"
measurement_type = "GI50"
val = "16.7 µM (inactive)"

[[record]]
compound = "O=C(c1ccc(Cl)cc1)N(C(=S)N1CCN(c2ccccc2)CC1)C1CCCCC1"
study_target = "RXF 393"
measurement_type = "GI50"
val = "> 100 µM (inactive)"


State recorded GI50 for all listed compounds.
1. CC(C)C(OC(=O)c1ccc(NCC2=CC(=O)C=CC2=O)cc1)C(C)C
2. Nc1ccccc1C(=O)N/N=C1\C(=O)Nc2ccccc21

OUTPUT:
1. 1.82 µM (inactive)
2. 68.7 µM (inactive)

----------
Dear all, this message contains GI50 results, target or system HCT-15.

In the examples that follow, each entry is paired with its recorded GI50.
[[record]]
compound = "C(=N\\NC1=NCCN1)/c1ccc(-c2cn3cc(/C=N/NC4=NCCN4)ccc3n2)cc1"
study_target = "HCT-15"
val = "> 68.4 µM"

[[record]]
compound = "CCN(CC)c1ccc(/N=N/c2ccc(-c3nc4ccc[n+](C)c4o3)cc2)cc1"
study_target = "HCT-15"
val = "10.3 µM"

[[record]]
compound = "COc1ccc(C=C2C(=O)NC(=S)NC2=O)c2ccccc12"
study_target = "HCT-15"
val = "33.1 µM"

[[record]]
compound = "COCCOC(=O)NCn1cc(-c2ccccc2)nn1"
study_target = "HCT-15"
val = "> 100 µM"


State recorded GI50 for all listed compounds.
1. CC(SC(=S)N1CCOCC1)c1cc2oc(=O)n(C)c2cc1Cl (stereo unspecified)
2. CCOC(=O)c1c(-c2ccc(OC)cc2)c(C#N)c(=S)n(C2OC(COC(C)=O)C(OC(C)=O)C(OC(C)=O)C2OC(C)=O)c1-c1ccccc1 (stereo unspecified)
3. CCOC(=O)C1=C(N2CCCC2)NC(=O)CC1=O
4. CCOP(=O)(OCC)/C(=C/c1ccccc1)CC(C)=O
5. Cn1c2ccccc2c2cc(N3CCCC3)c3c(c21)C(=O)N(c1ccccc1)C3=O

OUTPUT:
1: > 100 µM; 2: > 100 µM; 3: > 100 µM; 4: > 100 µM; 5: > 100 µM

State recorded GI50 for all listed compounds.
1. COC1=C(C)C(=O)c2c(c(COC(N)=O)c3n2CC(OC(C)=O)C3OC(C)=O)C1=O (stereo unspecified)
2. CC(=O)OC1CC2CCN3C(=O)c4cc5c(cc4[C@H](C1OC(C)=O)C23)OCO5 (stereo partly specified)
3. Cc1cccc(/C=N/NC(=S)N2CCCCCC2)n1
4. O=C1CCc2c(sc3ncnc(Nc4cccc(Br)c4)c23)C1
5. COc1ccc(C(=C(C#N)C#N)c2ccc(OC)cc2)cc1
6. Nc1ccc2nc(Nc3ccc(F)cc3)cnc2c1
7. O=C(CC1(O)C(=O)Nc2c(Cl)ccc(Cl)c21)c1ccco1 (stereo unspecified)
8. Cc1c(C(=O)O)sc2nc[nH]c(=O)c12

OUTPUT:
1. 0.0126 µM
2. > 100 µM
3. 0.049 µM
4. 3.24 µM
5. > 100 µM
6. > 100 µM
7. 25.2 µM
8. > 100 µM
